target: AmpC (Escherichia coli, UniProt P00811); assay: β-lactamase inhibition, nitrocefin hydrolysis
Sequence (P00811 20-377): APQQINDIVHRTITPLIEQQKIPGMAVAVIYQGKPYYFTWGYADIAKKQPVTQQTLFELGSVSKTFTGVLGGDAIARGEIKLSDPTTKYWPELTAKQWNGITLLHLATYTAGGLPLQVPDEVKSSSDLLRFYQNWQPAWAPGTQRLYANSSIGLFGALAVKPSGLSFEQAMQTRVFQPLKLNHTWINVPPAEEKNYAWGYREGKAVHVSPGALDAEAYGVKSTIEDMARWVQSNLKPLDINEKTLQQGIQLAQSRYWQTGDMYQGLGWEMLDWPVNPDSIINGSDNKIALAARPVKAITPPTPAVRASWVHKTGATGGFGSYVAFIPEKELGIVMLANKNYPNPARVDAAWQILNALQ
pIC50: −log10 of the molar value.
Reported pIC50 by item:

Sample answers from the record:
CC(C)(C)CCOc1c(-c2ccc(F)c(F)c2)oc2cc(O)cc(O)c2c1=O	4.72
NCCOCCOc1c(-c2ccc(F)c(F)c2)oc2cc(O)cc(O)c2c1=O	< 4.30
O=c1c(OCCC(F)(F)F)c(-c2ccc(F)c(F)c2)oc2cc(O)cc(O)c12	< 4.30
O=c1c(O)c(-c2ccc(F)c(F)c2)oc2cc(O)cc(O)c12	< 4.30

We next turn to a different molecule, shown below.
Input line: Tell us which pIC50 value is on record for `O=c1c(OCCN2CCOCC2)c(-c2ccc(F)c(F)c2)oc2cc(O)cc(O)c12`
Output line: < 4.30

###

target: KPC-2 (Klebsiella pneumoniae); construct: purchased LifeSpan Biosciences, Inc. LS-G26598; experiment: β-lactamase inhibition, nitrocefin hydrolysis; type: biochemical; details: nitrocefin substrate; read-out: β-Lactamases, IC50 KPC-2
Sequence (Q9F663 25-293, looked up): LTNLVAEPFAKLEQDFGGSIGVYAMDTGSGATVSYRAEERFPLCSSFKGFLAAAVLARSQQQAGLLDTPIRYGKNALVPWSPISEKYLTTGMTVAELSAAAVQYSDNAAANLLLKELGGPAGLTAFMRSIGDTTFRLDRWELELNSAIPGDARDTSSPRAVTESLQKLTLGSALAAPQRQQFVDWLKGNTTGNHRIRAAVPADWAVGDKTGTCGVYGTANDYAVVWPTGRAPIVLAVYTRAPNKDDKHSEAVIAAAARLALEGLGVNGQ
pIC50: −log10 of the molar value.
Reported pIC50 by item:

Sample answers from the record:
O=c1c(OCCOCCOCCO)c(-c2ccc(F)c(F)c2)oc2cc(O)cc(O)c12	< 4.30
O=c1c(OCCC2CCNCC2)c(-c2ccc(F)c(F)c2)oc2cc(O)cc(O)c12	< 4.30
NCCOCCOc1c(-c2ccc(F)c(F)c2)oc2cc(O)cc(O)c2c1=O	< 4.30

Input line: Recall the reported pIC50 of `O=c1c(OCCCC2CCCC2)c(-c2ccc(F)c(F)c2)oc2cc(O)cc(O)c12` when tested on KPC-2 (Klebsiella pneumoniae).
Output line: 4.55

Input line: Recall the reported pIC50 of `C[N+](C)(CCOc1c(-c2ccc(F)c(F)c2)oc2cc(O)cc(O)c2c1=O)CC(=O)[O-]` when tested on KPC-2 (Klebsiella pneumoniae).
Output line: < 4.30

Input line: Recall the reported pIC50 of `CC(C)c1ccc(COc2c(-c3ccc(F)c(F)c3)oc3cc(O)cc(O)c3c2=O)cc1` when tested on KPC-2 (Klebsiella pneumoniae).
Output line: 4.67

Input line: Recall the reported pIC50 of `O=c1c(OCCOCCO)c(-c2ccc(F)c(F)c2)oc2cc(O)cc(O)c12` when tested on KPC-2 (Klebsiella pneumoniae).
Output line: < 4.30

Input line: Recall the reported pIC50 of `CC(C)OC(=O)OCOc1c(-c2ccc(F)c(F)c2)oc2cc(O)cc(O)c2c1=O` when tested on KPC-2 (Klebsiella pneumoniae).
Output line: < 4.30

###

Reported MIC by item:
tested on: MBL-producing P. aeruginosa clinical isolates; assay: MIC by broth microdilution (CLSI); format: cell-based, Pseudomonas aeruginosa; conditions: Pseudomonas aeruginosa, PA-029, blaIMP

Sample answers from the record:
CNC(C)C1CCC(N)C(OC2C(N)CC(N)C(OC3OCC(C)(O)C(NC)C3O)C2O)O1 (stereo not shown)	> 8 µg/mL
C[C@@H](O)[C@H]1C(=O)N2C(C(=O)O)=C(SCCN=CN)C[C@H]12	> 8 µg/mL
CC(C)(O/N=C(\C(=O)N[C@@H]1C(=O)N2C(C(=O)[O-])=C(C[n+]3ccccc3)CS[C@H]12)c1csc(N)n1)C(=O)O	> 16 µg/mL

We next turn to a different molecule, shown below.
Input line: Tell us which MIC value is on record for CO/N=C(\C(=O)N[C@@H]1C(=O)N2C(C(=O)[O-])=C(C[N+]3(C)CCCC3)CS[C@H]12)c1csc(N)n1 [FEP, cefepime]
Output line: > 16 µg/mL

Where do the numbers come from? From paper PMC10892423.
